Recorded values, source the RNAGym collection of RNA variant scans (doi:10.1126/science.aae0568).

B1: tRNA (parent)
chain: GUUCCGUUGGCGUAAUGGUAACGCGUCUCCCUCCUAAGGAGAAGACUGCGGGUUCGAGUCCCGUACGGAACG

Variants of: B1
Assay: yeast fitness relative to wild type (ratio to wild type); higher = fitter; tRNA-Arg(CCU), competitive growth, 37 C, YPD
Fewer inactive variants are shown than the library holds.
ENDPOINT: yeast fitness

GUUCCGUUGGCGUAAUGGUAACGCGACUCCAUCCUAAGGAGAAGUCUGCGGGUUCGAGUCCCGUACGGAACG [U26A C31A A45U] : 0.563
GUUCCGUUGGCGUAAUGGUAACGCGUCUCUCUCCUAACGAGAAGACUGCGGGUUCGAGUCCGGUACGGAACG [C30U G38C C62G] : ≤ 0.5
GUUCCGUUGGCGUAAUGGUAACGCGUCUCCCUCAUAGGGAGAAGACUGCGGGUUCGAGUCCCGUAUGGAACG [C34A A37G C66U] : ≤ 0.5
GUUCCGUUGGCGUAAUGGUAACGCGUCUCCCACCUAAGGAGAAGACUGCGGGUUCGAGUCCCGUCCGGAACG [U32A A65C] : 0.887
GUUCCGUUGGCGUAAUGGUAACGCGUCUCCCUCCUUAGGAGAAGACUUCGGGUUCGAGUCCCGUAAGGAACG [A36U G48U C66A] : ≤ 0.5
GUUCCGUUGGCGUGAUGGUAACGCGUCUCCCUCCGAAGGAGAAGACUGCGGGUUAGAGUCCCAUACGGAACG [A14G U35G C55A G63A] : ≤ 0.5
GUUCCGUUGGCGUAAUGGUAACGCGUCUCUUUCCUAAGGAGUAGACUGCGGGUUCGAGUCCCGUACAGAACG [C30U C31U A42U G67A] : 0.537
GUUCCGUUAGCGUAAUGGUAACGCGUCUCCAUCCUAAGGACAAGACUGCGGGUUUGAGUCCCGUACGGAACG [G9A C31A G41C C55U] : ≤ 0.5
GUUCCGUUGGCGUAAUGGUAACGCGUCUCUCUCCUAAGGAGACGACUGCGGGUUCGAGUCCCGUACGGAUCG [C30U A43C A70U] : 0.556
GUUCCGUUGGCAUAAUGGUAACGCGUCUCCCUCCUAAGGAGAAGACUGCGGGUUCGAGUCCCGUACGCAACG [G12A G68C] : 0.667
GUUGCGUUGGCGUAAUGGUAACGCGUCUCCCUCCUAAGGAGCAGACUGCAGGUUCGAGUCCCGUACGGAACG [C4G A42C G50A] : ≤ 0.5
GUUCCGUUGGCAUAAUGGUAACGCGUCUCCCUCCUAACGAGAAGACUGCGGGUUCGAGUCCCGUACGGAACG [G12A G38C] : 0.869
GUUCCGUUGGCGUAAUGGUAACGCGUCUGCCUUCUAAGGAGAAGACUGCGGGUUCGAGUCCCGUAUGGAACG [C29G C33U C66U] : ≤ 0.5
GUUCCGUUGGCGUAAUGGUAACGCGUCUCCCUCCUAAGGAGAAGGCUGCGGGUUUGAGUCCCGUACAGAACG [A45G C55U G67A] : 0.656
GUUCGGUUGGCGUAAUGGUAACGCGUCUCCCUCAUAAGCAGAAGACUGCGGAUUCGAAUCCCAUACGGAACG [C5G C34A G39C G52A G58A G63A] : ≤ 0.5
GUUCCGUUGGCGUUAUGAUAACGCGUCUCCCUCCUAAGGAGAAGACUGCGGGUUCGAGUCCCGUACGGAACG [A14U G18A] : ≤ 0.5
GUUCCGUUGGCGUAAUGGUAACGCGUCUCCCUCCUAAGGAGACGACUGUGGGUUCGAGUCCCGUACGGAACG [A43C C49U] : 0.964
GUUCCGUCGGCGUAAUGGUAACGCGUCUCCGUCCUAAGGAGAAGACUGCGAGUUCGAGUCCCGUACGCAACG [U8C C31G G51A G68C] : ≤ 0.5
GUCCCGUUGGCGUAAUGGUAACGCCUCUCCCUCCUAAAGAGCAGACUGCGGAUUCGAGUCCUGUACGGAACG [U3C G25C G38A A42C G52A C62U] : ≤ 0.5
GUUCCGUUGGCGUAAUGGUAACGCGUUGCCAUCCUAAGGAGAAGACUGCGGGUUCGACUCCCGUACGGAACG [C27U U28G C31A G58C] : ≤ 0.5
GUUCCGUUGGAGUAAUGGUAACGCGUCUCCCUCCUCAGGAGGAGACCGCGGGUUCGAGUCCCGUACAGAACG [C11A A36C A42G U47C G67A] : ≤ 0.5
GUUCCGUUGGCGUUAUGGUAACGCGUCUCCCUCCUAAGGAGAAGAUUCCGGGUUCGAGUCCCAUACGAAACG [A14U C46U G48C G63A G68A] : ≤ 0.5
